biological target: Geranylgeranyl transferase type I (Homo sapiens, UniProt P49354+P53609); assay: Inhibition of Geranylgeranyl transferase type I
METRIC: IC50 (µM)
Please respond with the number in µM and leave the unit unwritten.

Quick one: IC50 for CC(C)(C)[C@H](NCCc1c[nH]cn1)C(=O)N1Cc2ccccc2C[C@H]1C(=O)N[C@@H](CCC(N)=O)C(=O)O ? 30.5

Quick one: IC50 for CSCC[C@H](NC(=O)[C@@H]1Cc2ccccc2CN1C(=O)[C@@H](NCc1c[nH]cn1)C(C)C)C(=O)O ? 17.4

Quick one: IC50 for CC(C)(C)[C@H](NCCCc1cnc[nH]1)C(=O)N1Cc2ccccc2C[C@H]1C(=O)N[C@@H](CCC(N)=O)C(=O)O ? 106

Quick one: IC50 for CSCC[C@H](NC(=O)[C@@H]1Cc2ccccc2CN1C(=O)[C@@H](NC(=O)c1c[nH]cn1)C(C)C)C(=O)O ? 25.8

Quick one: IC50 for CSCC[C@H](NC(=O)[C@@H]1Cc2ccccc2CN1C(=O)[C@@H](NCCc1c[nH]cn1)C(C)C)C(=O)O ? 0.234

Quick one: IC50 for CSCC[C@H](NC(=O)[C@@H]1Cc2ccccc2CN1C(=O)[C@@H](NC(=O)Cc1c[nH]cn1)C(C)C)C(=O)O ? 2.02

Quick one: IC50 for CC(C)(C)[C@H](NC(=O)CCc1c[nH]cn1)C(=O)N1Cc2ccccc2C[C@H]1C(=O)N[C@@H](CCC(N)=O)C(=O)O ? 168
